# procedure_summary: physchem
# particulars: 25 °C, water
endpoint: solubility

Quick check: solubility of `COc1ccc(/C=C\c2cc(OC)c3c(c2)OCO3)cc1O` ? < 1000 µg/mL
